Kindly state TGI for each of the entries shown.
System: OVCAR-4 ovarian
TEST_DESCRIPTION: NCI tumour cell line growth inhibition, 48 h

Entry O=C(/C=C/c1ccc(C(F)(F)F)cc1)c1ccc(Nc2nc(NCCO)nc(N3CCOCC3)n2)cc1 : TGI on OVCAR-4 ovarian = 10.2 µM

Entry Fc1ccc(Nc2nnc(-c3ccccn3)s2)cc1 : TGI on OVCAR-4 ovarian = > 100 µM

Entry Clc1ccc2c(c1)-c1ccccc1C1=NCCN12 : TGI on OVCAR-4 ovarian = 7.35 µM

Entry CCN1C[C@]2(C)CC[C@H](OCc3ccccc3)C34C5C[C@@H]6CC[C@](O)(C(C[C@@H]32)C14)C5[C@H]6OCc1ccccc1 (stereo not given in full) : TGI on OVCAR-4 ovarian = > 100 µM

Entry Cc1ccc(S(=O)(=O)c2c3[nH]c4ccccc4nc3n3c2nc2ccccc23)cc1 : TGI on OVCAR-4 ovarian = > 100 µM

Entry COc1cc(C(=O)CC2(O)C(=O)Nc3c(Cl)cc(Cl)cc32)ccc1O (stereo not given) : TGI on OVCAR-4 ovarian = > 100 µM

Entry Nc1ccccc1OCc1cc(=O)c(OCc2ccccc2)co1 : TGI on OVCAR-4 ovarian = > 100 µM

Entry CC12CC3CC(C1)CC(N=[N+]=[N-])(C3)C2 : TGI on OVCAR-4 ovarian = > 100 µM

Entry O=C(CCCCCCC(=O)Nc1ccc2c(c1)/C(=C/c1ccc[nH]1)C(=O)N2)NO : TGI on OVCAR-4 ovarian = 52 µM

Entry CC1=NN(C(=O)c2ccc(Cl)cc2)C(=O)/C1=C/c1ccc(O)cc1 : TGI on OVCAR-4 ovarian = > 100 µM

Entry CS/C(c1ccccc1)=[N+](/C)[O-] : TGI on OVCAR-4 ovarian = > 100 µM

Entry FC(F)(F)C1(C(F)(F)F)O[SiH]2(OC(C(F)(F)F)(C(F)(F)F)c3ccccc32)c2ccccc21 : TGI on OVCAR-4 ovarian = 23.4 µM

Entry CCCN(CCC)C(=O)[C@H](CC)[C@@H]1CC[C@@H](C)[C@@H]([C@H](C)[C@@H](O)[C@@H](C)C(=O)[C@H](CC)C2O[C@]3(C=C[C@@H](O)[C@]4(CC[C@@](C)([C@H]5CC[C@](O)(CC)[C@H](C)O5)O4)O3)[C@H](C)C[C@@H]2C)O1 (stereo not given in full) : TGI on OVCAR-4 ovarian = 13.2 µM

Entry CC(=O)c1cccc(NC(=O)C(=O)C(C(=O)c2ccccc2F)C2OC(=O)c3ccccc32)c1 (stereo not given) : TGI on OVCAR-4 ovarian = > 100 µM

Entry Cc1cccc2c1C(=O)OC2(C)c1cccc2ccccc12 (stereo not given) : TGI on OVCAR-4 ovarian = 67.4 µM

Entry CCOC(=O)c1nc2ccccc2nc1Oc1ccc(OC)cc1 : TGI on OVCAR-4 ovarian = > 100 µM

Entry Cc1csc2nc3[nH]ncc3c(=O)n12 : TGI on OVCAR-4 ovarian = > 100 µM

Entry S=C(Nc1ccccc1)N(Cc1ccccc1)c1ccccc1 : TGI on OVCAR-4 ovarian = 93.6 µM

Entry Oc1ccc(N=Nc2ccc(N=Nc3ccccc3)cc2)cc1 : TGI on OVCAR-4 ovarian = 32.9 µM

Entry Oc1c(N=Nc2ccccc2)c2ccccc2c2ccc3ccccc3c12 : TGI on OVCAR-4 ovarian = > 100 µM
